Experiment: Hemolytic activity against RBC (unknown origin) at 120 uM
Format: ADME, cell-based, Erythrocyte
Settings: red blood cells (erythrocytes); read-out: Activity
experimentalReadout: hemolysis at 120 µM (%)
Numeric only. Scale: %

Task: What value of hemolysis at 120 µM has been reported for the following molecule? CCCCCCCCCC[P+](Cc1ccccc1O)(c1ccccc1)c1ccccc1.[Cl-]
Output: 5.9

Task: Fill blank: measured hemolysis at 120 µM of the molecule CCCCCCCCCCCCCC[P+](Cc1ccccc1O)(c1ccccc1)c1ccccc1.[Cl-] is ____.
Output: 100

Task: Sample CCCCCCC[P+](Cc1ccccc1O)(c1ccccc1)c1ccccc1.[Cl-] — what was its hemolysis at 120 µM?
Output: 0.4

Task: Reported hemolysis at 120 µM, molecule CCCCCCCCCCCC[P+](Cc1ccccc1O)(c1ccccc1)c1ccccc1.[Cl-] : ____
Output: 21.2

Task: Recorded hemolysis at 120 µM of CCCCCCCCCCCCCCCC[P+](Cc1ccccc1O)(c1ccccc1)c1ccccc1.[Cl-] , please.
Output: 100

----------
Experiment: Hemolytic activity against RBC (unknown origin) at 5 uM
Assay type: ADME, cell-based, Erythrocyte
Details: red blood cells (erythrocytes); read-out: Activity
Non-standard residues stand in square brackets, D forms with d. Residues, ends and D or L forms follow the SMILES beside them. Orn = NCCC[C@H](N)C(=O)O
experimentalReadout: hemolysis at 5 µM (%)
Numbers only; they are read as %.

Task: What measured hemolysis at 5 µM goes with CC(C)C[C@@H]1NC(=O)[C@H](CCCN)NC(=O)[C@H](C(C)C)NC(=O)[C@@H]2CCCN2C(=O)[C@@H](Cc2ccccc2)NC(=O)[C@H](CC(C)C)NC(=O)[C@H](CCCN)NC(=O)[C@H](C(C)C)NC(=O)[C@@H]2CCCN2C(=O)[C@@H](Cc2ccccc2)NC1=O (cyclo(L[dF]PV[Orn]L[dF]PV[Orn])) ?
Output: 0.5

Task: Quick one: hemolysis at 5 µM for CCCCCC[P+](Cc1ccccc1O)(c1ccccc1)c1ccccc1.[Cl-] ?
Output: 0

Task: GET /values?readout=hemolysis at 5 µM&item= CCCCCCCCCCCCCCCCCC[P+](Cc1ccccc1O)(c1ccccc1)c1ccccc1.[Cl-]
Output: 0

Task: Request the reported hemolysis at 5 µM associated with CCCCCCCCCCCCCCCC[P+](Cc1ccccc1O)(c1ccccc1)c1ccccc1.[Cl-]
Output: 0.3

Task: Returns the measured hemolysis at 5 µM for the input molecule. Input: CCCCCCC[P+](Cc1ccccc1O)(c1ccccc1)c1ccccc1.[Cl-]
Output: 0

Task: Name the recorded hemolysis at 5 µM for CCCCCCCCCCCCCC[P+](Cc1ccccc1O)(c1ccccc1)c1ccccc1.[Cl-] .
Output: 0

Task: Name the reported hemolysis at 5 µM value associated with the molecule CCCCCCCCCC[P+](Cc1ccccc1O)(c1ccccc1)c1ccccc1.[Cl-]
Output: 0

Task: Which hemolysis at 5 µM reading was recorded for the molecule CCCCCCCCCCCC[P+](Cc1ccccc1O)(c1ccccc1)c1ccccc1.[Cl-] ?
Output: 0.9

Task: Record request: hemolysis at 5 µM value, item CCCCCCCC[P+](Cc1ccccc1O)(c1ccccc1)c1ccccc1.[Cl-]
Output: 0

----------
Please provide measured hemolysis at 60 µM for the entries that follow.
Assay: Hemolytic activity against RBC (unknown origin) at 60 uM
Assay type: ADME, cell-based, Erythrocyte
Settings: red blood cells (erythrocytes); read-out: Activity

Task: Please look up its hemolysis at 60 µM: CCCCCC[P+](Cc1ccccc1O)(c1ccccc1)c1ccccc1.[Cl-]
Output: 0.3%

Task: So what does the record say about hemolysis at 60 µM for CCCCCCCCCCCCCCCC[P+](Cc1ccccc1O)(c1ccccc1)c1ccccc1.[Cl-] ?
Output: 98%

Task: What measured hemolysis at 60 µM goes with CCCCCCCC[P+](Cc1ccccc1O)(c1ccccc1)c1ccccc1.[Cl-] ?
Output: 0.6%

Task: Query: hemolysis at 60 µM; subject: CCCCCCCCCCCC[P+](Cc1ccccc1O)(c1ccccc1)c1ccccc1.[Cl-]
Output: 12.2%

Task: Please give the measured hemolysis at 60 µM for this molecule: CCCCCCC[P+](Cc1ccccc1O)(c1ccccc1)c1ccccc1.[Cl-]
Output: 0.3%

----------
Assay: Hemolytic activity against RBC (unknown origin) at 120 uM
Assay type: ADME, cell-based, Erythrocyte
Conditions: red blood cells (erythrocytes); read-out: Activity
Non-standard residues stand in square brackets, D forms with d. Residues, ends and D or L forms follow the SMILES beside them. Orn = NCCC[C@H](N)C(=O)O
What hemolysis at 120 µM was measured for each of the following?
Report as: number unit

Task: Report hemolysis at 120 µM for CCCCCCCCCCCCCCCCCC[P+](Cc1ccccc1O)(c1ccccc1)c1ccccc1.[Cl-] please.
Output: 15.6%

Task: Form field: reported hemolysis at 120 µM of CCCCCCCC[P+](Cc1ccccc1O)(c1ccccc1)c1ccccc1.[Cl-]
Output: 2.3%

Task: Give the measured hemolysis at 120 µM of CCCCCC[P+](Cc1ccccc1O)(c1ccccc1)c1ccccc1.[Cl-] .
Output: 0.4%

Task: Recorded hemolysis at 120 µM for CC(C)C[C@@H]1NC(=O)[C@H](CCCN)NC(=O)[C@H](C(C)C)NC(=O)[C@@H]2CCCN2C(=O)[C@@H](Cc2ccccc2)NC(=O)[C@H](CC(C)C)NC(=O)[C@H](CCCN)NC(=O)[C@H](C(C)C)NC(=O)[C@@H]2CCCN2C(=O)[C@@H](Cc2ccccc2)NC1=O (cyclo(L[dF]PV[Orn]L[dF]PV[Orn])) , please?
Output: 100%

----------
Assay: Selectivity index, ratio of IC50 for human Chang cells to IC50 for human PANC1 cells
experimentalReadout: Ratio IC50
Hey, just send me the number, nothing else.

Task: Need Ratio IC50, item CCCCCCCCCCCCCCCCCC[P+](Cc1ccccc1O)(c1ccccc1)c1ccccc1.[Cl-]
Output: 1.1

Task: Please look up its Ratio IC50: CCCCCCCCCCCCCC[P+](Cc1ccccc1O)(c1ccccc1)c1ccccc1.[Cl-]
Output: 1.7

Task: Please look up its Ratio IC50: CCCCCCCCCC[P+](Cc1ccccc1O)(c1ccccc1)c1ccccc1.[Cl-]
Output: 1.7

Task: Given the entry CCCCCCCCCCCCCCCC[P+](Cc1ccccc1O)(c1ccccc1)c1ccccc1.[Cl-] , report its measured Ratio IC50.
Output: 1.8

Task: What does the data say about its Ratio IC50? Entry: CCCCCCC[P+](Cc1ccccc1O)(c1ccccc1)c1ccccc1.[Cl-]
Output: 1.04

----------
Test system: Trichophyton mentagrophytes
Assay: Antifungal activity against Trichophyton mentagrophytes
Type: functional
The source made the active and inactive calls. The rule behind the calls is not given here.
experimentalReadout: MIC

| compound | MIC |
| --- | --- |
| CCCCCCCCCCCC[P+](Cc1ccccc1O)(c1ccccc1)c1ccccc1.[Cl-] | 7.8 µM |
| C=CCCCC[P+](Cc1ccccc1O)(c1ccccc1)c1ccccc1 | inactive |
| CCCCCCCCCCCCCCCCCC[P+](Cc1ccccc1O)(c1ccccc1)c1ccccc1.[Cl-] | inactive |
| CCCCCCCCCCCCCCCC[P+](Cc1ccccc1O)(c1ccccc1)c1ccccc1.[Cl-] | 56.6 µM |
| CCCCCCCC[P+](Cc1ccccc1O)(c1ccccc1)c1ccccc1.[Cl-] | 284 µM |

Here is another compound to look at.
Task: Look up MIC with Trichophyton mentagrophytes for this compound: CCCCCCC[P+](Cc1ccccc1O)(c1ccccc1)c1ccccc1.[Cl-]
Output: 586 µM

----------
System: PANC-1
Test: Cytotoxicity against human PANC1 cells
Format: functional, cell-based
# strict inequality: IC50 < 30 µM yields rule met, everything else yields rule not met

Task: Field: below-cutoff. Rule: recorded IC50 strictly less than 30 µM. Subject: CCCCCCCCCCCC[P+](Cc1ccccc1O)(c1ccccc1)c1ccccc1.[Cl-]
Output: rule met

Task: Quick check: IC50 of CCCCCCCCCCCCCCCC[P+](Cc1ccccc1O)(c1ccccc1)c1ccccc1.[Cl-] under 30 µM?
Output: rule met

Task: Dear reviewer, please state whether CCCCCCCCCCCCCCCCCC[P+](Cc1ccccc1O)(c1ccccc1)c1ccccc1.[Cl-] has IC50 strictly beneath 30 µM.
Output: rule not met

Task: Quick check: does CCCCCC[P+](Cc1ccccc1O)(c1ccccc1)c1ccccc1.[Cl-] have IC50 under 30 µM?
Output: rule not met

Task: Dear colleague, could you confirm whether IC50 of CCCCCCC[P+](Cc1ccccc1O)(c1ccccc1)c1ccccc1.[Cl-] falls below 30 µM? Thanks.
Output: rule not met

Task: Quick check: does CCCCCCCC[P+](Cc1ccccc1O)(c1ccccc1)c1ccccc1.[Cl-] have IC50 under 30 µM?
Output: rule met

Task: is_below(IC50, 30 µM) for CCCCCCCCCC[P+](Cc1ccccc1O)(c1ccccc1)c1ccccc1.[Cl-] ?
Output: rule met

Task: Here's an entry: CCCCCCCCCCCCCC[P+](Cc1ccccc1O)(c1ccccc1)c1ccccc1.[Cl-] . Is its IC50 below 30 µM?
Output: rule met

Task: # TODO verify IC50 < 30 µM strictly for this molecule: COc1cccc2c1C(=O)c1c(O)c3c(c(O)c1C2=O)C[C@@](O)(C(=O)CO)C[C@@H]3O[C@H]1C[C@H](N)[C@H](O)[C@H](C)O1
Output: rule met

The measured values listed here are drawn from ChEMBL document CHEMBL4622868.
